assayedTarget: panel of more than 300 wild-type and mutant kinases (313 kinase panel) (Homo sapiens, UniProt Q06418)
Sequence (Q06418 41-890): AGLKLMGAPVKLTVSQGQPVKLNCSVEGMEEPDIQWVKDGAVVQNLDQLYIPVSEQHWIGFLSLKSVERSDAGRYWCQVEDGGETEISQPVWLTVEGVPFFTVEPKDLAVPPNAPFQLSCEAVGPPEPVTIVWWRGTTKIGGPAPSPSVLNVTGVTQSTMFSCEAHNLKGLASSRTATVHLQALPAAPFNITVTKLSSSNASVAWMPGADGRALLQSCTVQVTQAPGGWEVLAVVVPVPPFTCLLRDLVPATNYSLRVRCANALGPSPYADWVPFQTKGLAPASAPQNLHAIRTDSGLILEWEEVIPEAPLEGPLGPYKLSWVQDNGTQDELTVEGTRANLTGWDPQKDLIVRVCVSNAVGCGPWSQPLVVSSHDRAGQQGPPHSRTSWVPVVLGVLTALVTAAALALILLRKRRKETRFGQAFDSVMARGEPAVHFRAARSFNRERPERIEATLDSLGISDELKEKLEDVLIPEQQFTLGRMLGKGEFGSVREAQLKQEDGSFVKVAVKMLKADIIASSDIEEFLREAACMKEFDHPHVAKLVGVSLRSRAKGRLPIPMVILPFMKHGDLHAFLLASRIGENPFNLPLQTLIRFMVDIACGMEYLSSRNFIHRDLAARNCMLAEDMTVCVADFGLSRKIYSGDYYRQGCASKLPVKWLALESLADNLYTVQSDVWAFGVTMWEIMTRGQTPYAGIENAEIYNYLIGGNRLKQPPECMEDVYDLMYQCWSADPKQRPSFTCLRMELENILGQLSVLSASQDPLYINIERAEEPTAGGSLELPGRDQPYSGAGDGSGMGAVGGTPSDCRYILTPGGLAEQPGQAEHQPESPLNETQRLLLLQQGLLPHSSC
procedureText: Kinase profiling in a biochemical assay panel (mobility shift assays and ELISA), %-inhibition at 1 μM; selectivity entropy
measurementParameters: kinase TYRO3; compound at 1 μM
experimentalEndpoint: %-inhibition of TYRO3 (%)
// units = %; emit number, no label

compound="N#CC[C@H](C1CCCC1)n1cc(-c2ncnc3[nH]ccc23)cn1 [ruxolitinib]" experimentalendpoint="%-inhibition of TYRO3" value=-3

Exercise: Find the recorded %-inhibition of TYRO3 belonging to CNC(=O)c1cc(Oc2ccc(NC(=O)Nc3ccc(Cl)c(C(F)(F)F)c3)c(F)c2)ccn1 [regorafenib] and report it.
Key: 34

Exercise: Suppose we examine the compound O=S(=O)(c1cccc2cnccc12)N1CCCNCC1 [fasudil] ; what %-inhibition of TYRO3 value has been reported?
Key: -1.23

Exercise: Give the measured %-inhibition of TYRO3 of CS(=O)(=O)CCNCc1ccc(-c2ccc3ncnc(Nc4ccc(OCc5cccc(F)c5)c(Cl)c4)c3c2)o1 [lapatinib] .
Key: 13

Exercise: Give the measured %-inhibition of TYRO3 of Cc1ccc(Nc2nccc(N(C)c3ccc4c(C)n(C)nc4c3)n2)cc1S(N)(=O)=O [pazopanib] .
Key: 27

* * *

Measured %-inhibition of WNK1, listed per entry.
assayedTarget: panel of more than 300 wild-type and mutant kinases (313 kinase panel) (Homo sapiens, UniProt Q9H4A3)
Sequence (Q9H4A3 whole entry, change not shown): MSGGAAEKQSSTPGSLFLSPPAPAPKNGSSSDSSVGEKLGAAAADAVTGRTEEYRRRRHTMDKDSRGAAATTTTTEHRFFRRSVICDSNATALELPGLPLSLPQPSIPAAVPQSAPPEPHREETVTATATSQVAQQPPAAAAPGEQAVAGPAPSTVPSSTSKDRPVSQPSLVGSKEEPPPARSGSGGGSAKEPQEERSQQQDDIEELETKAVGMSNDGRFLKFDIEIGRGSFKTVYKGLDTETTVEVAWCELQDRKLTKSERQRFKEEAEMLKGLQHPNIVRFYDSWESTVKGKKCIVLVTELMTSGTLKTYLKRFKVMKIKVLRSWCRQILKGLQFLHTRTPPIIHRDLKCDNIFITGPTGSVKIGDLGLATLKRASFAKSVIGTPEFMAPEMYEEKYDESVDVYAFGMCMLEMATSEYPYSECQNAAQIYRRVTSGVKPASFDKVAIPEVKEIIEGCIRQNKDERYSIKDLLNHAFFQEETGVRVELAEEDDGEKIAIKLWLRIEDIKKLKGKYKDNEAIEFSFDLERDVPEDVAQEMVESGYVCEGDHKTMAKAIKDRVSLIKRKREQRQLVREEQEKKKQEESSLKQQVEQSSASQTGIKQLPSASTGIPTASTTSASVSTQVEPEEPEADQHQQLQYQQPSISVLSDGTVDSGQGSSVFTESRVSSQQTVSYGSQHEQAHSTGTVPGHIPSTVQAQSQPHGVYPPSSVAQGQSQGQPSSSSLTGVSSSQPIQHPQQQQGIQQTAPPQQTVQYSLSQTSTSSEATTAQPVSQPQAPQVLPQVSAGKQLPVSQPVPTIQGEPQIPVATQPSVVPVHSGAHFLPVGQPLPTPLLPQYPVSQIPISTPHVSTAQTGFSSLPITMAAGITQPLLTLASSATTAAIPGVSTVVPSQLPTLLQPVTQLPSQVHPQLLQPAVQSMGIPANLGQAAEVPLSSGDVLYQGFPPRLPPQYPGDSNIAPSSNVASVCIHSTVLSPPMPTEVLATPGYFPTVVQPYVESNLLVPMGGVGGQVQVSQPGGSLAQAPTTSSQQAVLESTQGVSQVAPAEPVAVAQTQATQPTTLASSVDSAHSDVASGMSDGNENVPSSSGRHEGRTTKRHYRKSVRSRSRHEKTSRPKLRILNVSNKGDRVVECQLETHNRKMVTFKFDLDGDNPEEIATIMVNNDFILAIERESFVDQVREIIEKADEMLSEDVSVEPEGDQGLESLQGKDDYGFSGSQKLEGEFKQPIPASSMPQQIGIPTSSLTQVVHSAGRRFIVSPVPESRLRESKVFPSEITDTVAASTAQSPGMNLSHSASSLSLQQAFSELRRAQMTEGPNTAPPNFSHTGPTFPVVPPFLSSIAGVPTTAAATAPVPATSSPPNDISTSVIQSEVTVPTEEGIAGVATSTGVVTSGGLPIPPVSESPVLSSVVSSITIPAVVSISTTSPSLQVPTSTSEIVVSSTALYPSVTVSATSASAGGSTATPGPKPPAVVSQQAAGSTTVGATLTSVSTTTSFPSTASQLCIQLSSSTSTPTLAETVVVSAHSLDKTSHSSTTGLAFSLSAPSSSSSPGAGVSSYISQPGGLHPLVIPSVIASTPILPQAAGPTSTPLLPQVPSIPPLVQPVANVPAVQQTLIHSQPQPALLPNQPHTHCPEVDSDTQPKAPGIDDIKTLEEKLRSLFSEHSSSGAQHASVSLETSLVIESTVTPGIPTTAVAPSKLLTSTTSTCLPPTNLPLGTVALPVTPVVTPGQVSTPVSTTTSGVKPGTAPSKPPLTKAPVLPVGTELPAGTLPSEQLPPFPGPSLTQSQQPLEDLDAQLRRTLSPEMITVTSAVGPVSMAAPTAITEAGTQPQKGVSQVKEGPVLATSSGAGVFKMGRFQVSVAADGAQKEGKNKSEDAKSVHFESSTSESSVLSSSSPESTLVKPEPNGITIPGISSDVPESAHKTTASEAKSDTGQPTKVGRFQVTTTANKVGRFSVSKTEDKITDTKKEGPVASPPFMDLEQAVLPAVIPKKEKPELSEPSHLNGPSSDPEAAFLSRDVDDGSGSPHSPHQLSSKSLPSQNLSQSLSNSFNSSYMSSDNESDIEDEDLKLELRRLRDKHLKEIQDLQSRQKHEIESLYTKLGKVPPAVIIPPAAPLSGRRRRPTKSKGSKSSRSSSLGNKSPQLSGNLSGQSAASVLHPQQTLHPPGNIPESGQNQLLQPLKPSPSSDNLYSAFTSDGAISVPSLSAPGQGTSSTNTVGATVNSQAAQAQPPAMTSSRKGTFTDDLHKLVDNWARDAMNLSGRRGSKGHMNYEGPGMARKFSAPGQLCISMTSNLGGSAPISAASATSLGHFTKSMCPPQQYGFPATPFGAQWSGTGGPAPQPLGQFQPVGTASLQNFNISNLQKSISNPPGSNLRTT
procedureText: Kinase profiling in a biochemical assay panel (mobility shift assays and ELISA), %-inhibition at 1 μM; selectivity entropy
measurementParameters: kinase WNK1; compound at 1 μM
Expressed in %, but write only the number.

Below, each entry is followed by its recorded %-inhibition of WNK1 result.
smilesstr=CO[C@H]1C[C@@H]2CC[C@@H](C)[C@@](O)(O2)C(=O)C(=O)N2CCCC[C@H]2C(=O)O[C@H]([C@H](C)C[C@@H]2CC[C@@H](OC(=O)C(C)(CO)CO)[C@H](OC)C2)CC(=O)[C@H](C)/C=C(\C)[C@@H](O)[C@@H](OC)C(=O)[C@H](C)C[C@H](C)/C=C/C=C/C=C/1C unitslabel=% value=-4.27
smilesstr=CO[C@H]1C[C@@H]2CC[C@@H](C)[C@@](O)(O2)C(=O)C(=O)N2CCCC[C@H]2C(=O)O[C@H]([C@H](C)C[C@@H]2CC[C@@H](OCCO)[C@H](OC)C2)CC(=O)[C@H](C)/C=C(\C)[C@@H](O)[C@@H](OC)C(=O)[C@H](C)C[C@H](C)/C=C/C=C/C=C/1C unitslabel=% value=-5
smilesstr=Cc1ccc(Nc2nccc(N(C)c3ccc4c(C)n(C)nc4c3)n2)cc1S(N)(=O)=O unitslabel=% value=-3.67

Exercise: # input compound: "CNC(=O)c1cc(Oc2ccc(NC(=O)Nc3ccc(Cl)c(C(F)(F)F)c3)c(F)c2)ccn1" ; wanted: its %-inhibition of WNK1
Key: -4

Exercise: Sample "CC(C)(C)c1nc(-c2cccc(NS(=O)(=O)c3c(F)cccc3F)c2F)c(-c2ccnc(N)n2)s1" — what was its %-inhibition of WNK1?
Key: 1.14

Exercise: Name the recorded %-inhibition of WNK1 for "CCCS(=O)(=O)Nc1ccc(F)c(C(=O)c2c[nH]c3ncc(-c4ccc(Cl)cc4)cc23)c1F" .
Key: 10

* * *

assayedTarget: panel of more than 300 wild-type and mutant kinases (313 kinase panel) (Homo sapiens, UniProt Q9UHD2)
Sequence (Q9UHD2 1-729): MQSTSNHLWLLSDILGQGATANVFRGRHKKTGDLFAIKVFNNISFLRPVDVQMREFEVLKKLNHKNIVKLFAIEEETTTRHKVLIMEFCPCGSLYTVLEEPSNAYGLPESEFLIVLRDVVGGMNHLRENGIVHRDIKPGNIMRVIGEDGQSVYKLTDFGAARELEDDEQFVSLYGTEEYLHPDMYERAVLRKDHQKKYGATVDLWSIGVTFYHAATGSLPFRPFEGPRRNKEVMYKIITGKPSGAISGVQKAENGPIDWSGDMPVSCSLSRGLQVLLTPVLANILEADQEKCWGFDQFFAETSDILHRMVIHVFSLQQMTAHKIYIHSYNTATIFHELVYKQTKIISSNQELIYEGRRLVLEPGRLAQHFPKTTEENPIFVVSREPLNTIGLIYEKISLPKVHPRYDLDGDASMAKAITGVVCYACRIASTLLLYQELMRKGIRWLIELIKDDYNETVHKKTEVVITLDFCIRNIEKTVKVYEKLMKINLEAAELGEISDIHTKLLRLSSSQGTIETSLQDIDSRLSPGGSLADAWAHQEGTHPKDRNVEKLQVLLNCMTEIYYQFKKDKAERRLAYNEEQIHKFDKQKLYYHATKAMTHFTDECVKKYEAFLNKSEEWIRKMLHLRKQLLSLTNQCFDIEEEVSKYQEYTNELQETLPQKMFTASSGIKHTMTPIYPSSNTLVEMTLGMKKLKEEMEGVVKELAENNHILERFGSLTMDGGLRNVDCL
procedureText: Kinase profiling in a biochemical assay panel (mobility shift assays and ELISA), %-inhibition at 1 μM; selectivity entropy
measurementParameters: kinase TBK1; 1 μM
Listing of entries alongside the reported %-inhibition of TBK1.
// units = %; emit number, no label

compound="CCN(CC)CCNC(=O)c1c(C)[nH]c(/C=C2\\C(=O)Nc3ccc(F)cc32)c1C [sunitinib]" value=56
compound="Cc1ccc(Nc2nccc(N(C)c3ccc4c(C)n(C)nc4c3)n2)cc1S(N)(=O)=O [pazopanib]" value=-2.68
compound="COc1cc2nccc(Oc3ccc(NC(=O)C4(C(=O)Nc5ccc(F)cc5)CC4)cc3)c2cc1OC [cabozantinib]" value=-0.506
compound="CO[C@H]1C[C@@H]2CC[C@@H](C)[C@@](O)(O2)C(=O)C(=O)N2CCCC[C@H]2C(=O)O[C@H]([C@H](C)C[C@@H]2CC[C@@H](OC(=O)C(C)(CO)CO)[C@H](OC)C2)CC(=O)[C@H](C)/C=C(\\C)[C@@H](O)[C@@H](OC)C(=O)[C@H](C)C[C@H](C)/C=C/C=C/C=C/1C [temsirolimus]" value=-2.23
compound="COc1cc2c(Nc3ccc(Br)cc3F)ncnc2cc1OCC1CCN(C)CC1 [vandetanib]" value=0.911
compound="CC(C)(C)c1nc(-c2cccc(NS(=O)(=O)c3c(F)cccc3F)c2F)c(-c2ccnc(N)n2)s1 [dabrafenib]" value=-1.15
compound="CS(=O)(=O)CCNCc1ccc(-c2ccc3ncnc(Nc4ccc(OCc5cccc(F)c5)c(Cl)c4)c3c2)o1 [lapatinib]" value=-14

Exercise: // %-inhibition of TBK1 lookup, key: CCCS(=O)(=O)Nc1ccc(F)c(C(=O)c2c[nH]c3ncc(-c4ccc(Cl)cc4)cc23)c1F [vemurafenib]
Key: -0.81

* * *

assayedTarget: panel of more than 300 wild-type and mutant kinases (313 kinase panel) (Homo sapiens)
procedureText: Kinase profiling in a biochemical assay panel (mobility shift assays and ELISA), %-inhibition at 1 μM; selectivity entropy
measurementParameters: kinase FAK; compound at 1 μM
We begin with a simple list: items and their reported %-inhibition of FAK.
Your answer is read as %, so omit the unit and give the number.

compound="COc1cc2nccc(Oc3ccc(NC(=O)C4(C(=O)Nc5ccc(F)cc5)CC4)cc3)c2cc1OC [cabozantinib]" assayedtarget="panel of more than 300 wild-type and mutant kinases (313 kinase panel) (Homo sapiens)" experimentalendpoint="%-inhibition of FAK" value=10
compound=CNC(=O)c1cc(Oc2ccc(NC(=O)Nc3ccc(Cl)c(C(F)(F)F)c3)c(F)c2)ccn1 assayedtarget="panel of more than 300 wild-type and mutant kinases (313 kinase panel) (Homo sapiens)" experimentalendpoint="%-inhibition of FAK" value=-1.14
compound=COc1cc(Nc2c(C#N)cnc3cc(OCCCN4CCN(C)CC4)c(OC)cc23)c(Cl)cc1Cl assayedtarget="panel of more than 300 wild-type and mutant kinases (313 kinase panel) (Homo sapiens)" experimentalendpoint="%-inhibition of FAK" value=22
compound=CO[C@H]1C[C@@H]2CC[C@@H](C)[C@@](O)(O2)C(=O)C(=O)N2CCCC[C@H]2C(=O)O[C@H]([C@H](C)C[C@@H]2CC[C@@H](OCCO)[C@H](OC)C2)CC(=O)[C@H](C)/C=C(\C)[C@@H](O)[C@@H](OC)C(=O)[C@H](C)C[C@H](C)/C=C/C=C/C=C/1C assayedtarget="panel of more than 300 wild-type and mutant kinases (313 kinase panel) (Homo sapiens)" experimentalendpoint="%-inhibition of FAK" value=-4
compound=N#CC[C@H](C1CCCC1)n1cc(-c2ncnc3[nH]ccc23)cn1 assayedtarget="panel of more than 300 wild-type and mutant kinases (313 kinase panel) (Homo sapiens)" experimentalendpoint="%-inhibition of FAK" value=-1

Exercise: // query %-inhibition of FAK value for entry "O=S(=O)(c1cccc2cnccc12)N1CCCNCC1"
Key: -4

Exercise: Dear colleague, I am looking for the recorded %-inhibition of FAK of the following compound: "Cc1cn(-c2cc(NC(=O)c3ccc(C)c(Nc4nccc(-c5cccnc5)n4)c3)cc(C(F)(F)F)c2)cn1"
Key: 3.25

Exercise: Which %-inhibition of FAK is listed for "C[C@@H](Oc1cc(-c2cnn(C3CCNCC3)c2)cnc1N)c1c(Cl)ccc(F)c1Cl" ?
Key: 90

Exercise: Consider the compound "CCCS(=O)(=O)Nc1ccc(F)c(C(=O)c2c[nH]c3ncc(-c4ccc(Cl)cc4)cc23)c1F" and give its measured %-inhibition of FAK.
Key: -3.55

Exercise: Item "Cc1ccc(Nc2nccc(N(C)c3ccc4c(C)n(C)nc4c3)n2)cc1S(N)(=O)=O" has what recorded %-inhibition of FAK?
Key: 46

Exercise: Data request, read-out %-inhibition of FAK, for "CO[C@H]1C[C@@H]2CC[C@@H](C)[C@@](O)(O2)C(=O)C(=O)N2CCCC[C@H]2C(=O)O[C@H]([C@H](C)C[C@@H]2CC[C@@H](OC(=O)C(C)(CO)CO)[C@H](OC)C2)CC(=O)[C@H](C)/C=C(\C)[C@@H](O)[C@@H](OC)C(=O)[C@H](C)C[C@H](C)/C=C/C=C/C=C/1C"
Key: -5.48

Exercise: // query %-inhibition of FAK value for entry "CC(=O)Nc1cccc(-n2c(=O)n(C3CC3)c(=O)c3c(Nc4ccc(I)cc4F)n(C)c(=O)c(C)c32)c1"
Key: -2.41

Where do the numbers come from? From paper PMC3961306.
